The entries below come with measured shrunken log2 fold change values attached.
Tested on: Escherichia coli TOP10;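 note: peptides expressed intracellularly from a pBAD plasmid library in pooled LB shake-flask culture, induced with 0.3% L-arabinose, DNA abundance read by NGS, three biological replicates, DESeq2 with apeglm shrinkage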
Assay: shrunken log2 fold change of peptide-encoding DNA abundance (4.5 h post-induction vs induction); higher = less antimicrobial activity (less host growth inhibition)
Details: time post-induction: 4.5 h; library: site-saturation at positions 5, 18, 19, 20
Keep it simple and answer with nothing but the number.

Below, each entry is followed by its recorded shrunken log2 fold change result.
# Macromolecule sequence, Observed result
measured = [
    ("RRIRCRPPRLPRPRPRPQKMPRP", -0.0362),
    ("RRIRDRPPRLPRPRPRPNEYPRP", 0.0406),
    ("RRIRKRPPRLPRPRPRPKLNPRP", 0.218),
    ("RRIRHRPPRLPRPRPRPSKTPRP", -0.24),
    ("RRIRMRPPRLPRPRPRPCYEPRP", 0.0712),
]

// moving on: another record for shrunken log2 fold change
Q) Kindly state the measured shrunken log2 fold change obtained for RRIRSRPPRLPRPRPRPLQGPRP with Escherichia coli TOP10.
A) -0.0686
